# target: melanocortin-4 receptor (human, UniProt P32245 1-332)
# Sequence (P32245 whole entry): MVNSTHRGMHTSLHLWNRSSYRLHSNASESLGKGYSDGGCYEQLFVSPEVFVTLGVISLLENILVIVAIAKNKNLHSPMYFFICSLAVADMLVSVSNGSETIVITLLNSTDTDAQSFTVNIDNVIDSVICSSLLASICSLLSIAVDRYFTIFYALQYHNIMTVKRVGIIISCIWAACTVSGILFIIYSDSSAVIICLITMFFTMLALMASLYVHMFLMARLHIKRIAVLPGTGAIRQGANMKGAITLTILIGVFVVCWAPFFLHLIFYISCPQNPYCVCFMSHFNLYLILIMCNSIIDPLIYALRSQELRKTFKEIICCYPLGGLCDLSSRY
# assay: cell-based or functional assay
Bridge positions count the residues as written; N and C are the ends. Square brackets hold non-standard residues; d marks the D form. hCys = N[C@@H](CCS)C(=O)O
quantity.name: cAMP Assay (EC-50) (nM)

Examples with their reported cAMP Assay (EC-50) follow.
[
  {
    "binder": "Ac-RC[dA]N[dF]RWC-NH2 (disulfide 2-8; SMILES CC(=O)N[C@@H](CCCNC(=N)N)C(=O)N[C@H]1CSSC[C@@H](C(N)=O)NC(=O)[C@H](Cc2c[nH]c3ccccc23)NC(=O)[C@H](CCCNC(=N)N)NC(=O)[C@@H](Cc2ccccc2)NC(=O)[C@H](CC(N)=O)NC(=O)[C@@H](C)NC1=O) [Ac-Arg-cyclo[Cys-D-Ala-Asn-D-Phe-Arg-Trp-Cys]-NH2]",
    "result.units": "nM",
    "cAMP Assay (EC-50)": 3
  },
  {
    "binder": "Ac-RC[dA]Q[dF]RWC-NH2 (disulfide 2-8; SMILES CC(=O)N[C@@H](CCCNC(=N)N)C(=O)N[C@H]1CSSC[C@@H](C(N)=O)NC(=O)[C@H](Cc2c[nH]c3ccccc23)NC(=O)[C@H](CCCNC(=N)N)NC(=O)[C@@H](Cc2ccccc2)NC(=O)[C@H](CCC(N)=O)NC(=O)[C@@H](C)NC1=O) [Ac-Arg-cyclo[Cys-D-Ala-Gln-D-Phe-Arg-Trp-Cys]-NH2]",
    "result.units": "nM",
    "cAMP Assay (EC-50)": 1.6
  },
  {
    "binder": "Ac-RC[dA]R[dF]RWC-NH2 (disulfide 2-8; SMILES CC(=O)N[C@@H](CCCNC(=N)N)C(=O)N[C@H]1CSSC[C@@H](C(N)=O)NC(=O)[C@H](Cc2c[nH]c3ccccc23)NC(=O)[C@H](CCCNC(=N)N)NC(=O)[C@@H](Cc2ccccc2)NC(=O)[C@H](CCCNC(=N)N)NC(=O)[C@@H](C)NC1=O) [Ac-Arg-cyclo[Cys-D-Ala-Arg-D-Phe-Arg-Trp-Cys]-NH2]",
    "result.units": "nM",
    "cAMP Assay (EC-50)": 2.7
  },
  {
    "binder": "Ac-R[hCys]A[dF]RWC-NH2 (disulfide 2-7; SMILES CC(=O)N[C@@H](CCCNC(=N)N)C(=O)N[C@H]1CCSSC[C@@H](C(N)=O)NC(=O)[C@H](Cc2c[nH]c3ccccc23)NC(=O)[C@H](CCCNC(=N)N)NC(=O)[C@@H](Cc2ccccc2)NC(=O)[C@H](C)NC1=O) [Ac-Arg-cyclo[hCys-Ala-D-Phe-Arg-Trp-Cys]-NH2]",
    "result.units": "nM",
    "cAMP Assay (EC-50)": 0.26
  },
  {
    "binder": "Ac-RC[dA]P[dF]RWC-NH2 (disulfide 2-8; SMILES CC(=O)N[C@@H](CCCNC(=N)N)C(=O)N[C@H]1CSSC[C@@H](C(N)=O)NC(=O)[C@H](Cc2c[nH]c3ccccc23)NC(=O)[C@H](CCCNC(=N)N)NC(=O)[C@@H](Cc2ccccc2)NC(=O)[C@@H]2CCCN2C(=O)[C@@H](C)NC1=O) [Ac-Arg-cyclo[Cys-D-Ala-Pro-D-Phe-Arg-Trp-Cys]-NH2]",
    "result.units": "nM",
    "cAMP Assay (EC-50)": 56
  }
]

A: Ac-RC[dV]H[dF]RWC-NH2 (disulfide 2-8) [Ac-Arg-cyclo[Cys-D-Val-His-D-Phe-Arg-Trp-Cys]-NH2]
B: Ac-RC[dL]H[dF]RWC-NH2 (disulfide 2-8) [Ac-Arg-cyclo[Cys-D-Leu-His-D-Phe-Arg-Trp-Cys]-NH2]
Please state the entry with greater cAMP Assay (EC-50) among A and B . # answer = label of selected item
A
